Target: MMP-1 (Homo sapiens)
Test: MMP-1 inhibitory action (Type I collagen Activity Measurement kit, FITC-labeled collagen type I)
Type: biochemical
Conditions: Experimental Example 2; read-out: IC50 MMP1
pIC50: −log10 of the molar value.
readout: pIC50

*Q* Query (compound): CC1[C@H](c2ccccc2)[C@]1(NS(=O)(=O)c1ccc2nc(-c3ccccc3)cn2c1)C(=O)O (stereo partly drawn) ; field requested: pIC50
*A* ≤ 6.00

*Q* Item: CCOC(=O)CSCC1(c2ccccc2)CC1(NS(=O)(=O)c1ccc(-c2cc(C(F)(F)F)on2)s1)C(=O)O (stereo not drawn)
*A* > 6.00

*Q* Item: C#Cc1ccc(S(=O)(=O)N[C@@]2(C(=O)O)C(C)[C@@H]2c2ccccc2)s1 (stereo partly drawn)
*A* > 6.00

*Q* Item: "C[C@]1(c2ccccc2)C[C@@]1(NS(=O)(=O)c1ccc(-c2cccnc2)s1)C(=O)O"
*A* ≤ 6.00

*Q* Item: Cc1cnc(-c2ccc(S(=O)(=O)N[C@@]3(C(=O)O)C(C)[C@@H]3c3ccccc3)s2)o1 (stereo partly drawn)
*A* ≤ 6.00

*Q* Item: CCNC(=O)OCC1(c2ccccc2)CC1(NS(=O)(=O)c1ccc(-c2cc(C(F)(F)F)on2)s1)C(=O)O (stereo not drawn)
*A* ≤ 6.00

*Q* Item: "C[C@]1(c2ccccc2)C[C@@]1(NS(=O)(=O)c1ccc(N2CCOCC2)s1)C(=O)O"
*A* ≤ 5.00

*Q* Item: CN(C)C(=O)CSCC1(c2ccccc2)CC1(NS(=O)(=O)c1ccc(-c2ccc(Cl)cc2)s1)C(=O)O (stereo not drawn)
*A* ≤ 6.00

*Q* Item: O=C(O)C1(NS(=O)(=O)c2ccc(-c3cc(C(F)(F)F)on3)s2)CC1c1cc(CO)on1 (stereo not drawn) [Example 2-317]
*A* ≤ 6.00

*Q* Item: "C[C@]1(c2ccccc2)C[C@@]1(NS(=O)(=O)c1ccc(-c2cc(Cl)cc(Cl)c2)s1)C(=O)O"
*A* ≤ 5.00

*Q* Item: "C[C@]1(c2ccccc2)C[C@@]1(NS(=O)(=O)c1ccc(-c2ccc(F)c(Cl)c2)s1)C(=O)O"
*A* ≤ 6.00

*Q* Item: CC(C)C(=O)NCCCC1(c2ccccc2)CC1(NS(=O)(=O)c1ccc(-c2ccc(Cl)cc2)s1)C(=O)O (stereo not drawn)
*A* ≤ 6.00

*Q* Item: CC1[C@H](c2ccccc2)[C@]1(NS(=O)(=O)c1ccc(-c2cn3cccnc3n2)s1)C(=O)O (stereo partly drawn)
*A* ≤ 6.00

*Q* Item: O=C(O)C1(NS(=O)(=O)c2ccc(-c3cc(C(F)(F)F)on3)s2)CC1c1cc(CCO)on1 (stereo not drawn) [Example 2-316]
*A* ≤ 5.00

*Q* Item: NC(=O)OCCc1cccc(C2CC2(NS(=O)(=O)c2ccc(-c3cc(C(F)(F)F)on3)s2)C(=O)O)c1 (stereo not drawn)
*A* ≤ 6.00

*Q* Item: "COc1cnn(-c2ccc(S(=O)(=O)N[C@@]3(C(=O)O)C[C@@H]3c3ccccc3)cn2)c1"
*A* ≤ 5.00

*Q* Item: O=C(O)C1(NS(=O)(=O)c2ccc(-c3ccc(Cl)cc3)s2)C2CCC(O)c3ccccc3C21 (stereo not drawn) [Example 2-412]
*A* ≤ 6.00

*Q* Item: "C[C@]1(c2ccccc2)C[C@@]1(NS(=O)(=O)c1ccc(-c2ccc(F)c(F)c2)s1)C(=O)O"
*A* ≤ 6.00

###

Target: Recombinant Human MMP-13 (Homo sapiens, UniProt P45452)
Construct: purchased R&D systems 511-MM
Test: MMP-13 inhibitory activity (MMP-13 specific fluorescent substrate with quencher)
Type: biochemical
Conditions: Recombinant Human MMP-13, fluorescent substrate, 25° C. for 1 h; read-out: IC50 MMP13 (Experimental Example 3)
pIC50: −log10 of the molar value.
Can you tell me pIC50 for the items I'm about to list?

*Q* Query (compound): O=C(O)C1(NS(=O)(=O)N2CCN(c3ncc(Br)cn3)CC2)CC1c1ccccc1 (stereo not drawn) [Example 2-155] ; field requested: pIC50
*A* > 6.00

*Q* Item: COc1ccc(-c2ccc(S(=O)(=O)N[C@@]3(C(=O)O)C[C@@H]3c3ccccc3)s2)nn1 [Example 2-33]
*A* > 6.00

*Q* Item: CN(C)c1cccc(C2CC2(NS(=O)(=O)c2ccc(-c3ccc(Cl)cc3)s2)C(=O)O)c1 (stereo not drawn) [Example 1-133]
*A* > 7.00

*Q* Item: CCC(=O)c1ccc(S(=O)(=O)NC2(C(=O)O)CC2c2ccccc2)s1 (stereo not drawn) [Example 2-116]
*A* ≤ 5.00

*Q* Item: O=C(O)[C@]1(NS(=O)(=O)c2ccc(-c3cc(C(F)(F)F)on3)s2)C[C@@H]1c1ccccc1Br [Example 2-193]
*A* > 6.00

*Q* Item: CC(=O)c1ccc(S(=O)(=O)NC2(C(=O)O)CC2c2ccccc2)cc1 (stereo not drawn) [Example 2-80]
*A* ≤ 5.00

*Q* Item: CCc1cc(-c2ccc(S(=O)(=O)N[C@@]3(C(=O)O)C[C@@H]3c3ccccc3)s2)no1 [Example 2-92]
*A* > 7.00

*Q* Item: Cc1ncc(-c2ccc(S(=O)(=O)NC3(C(=O)O)CC3c3ccccc3)s2)o1 (stereo not drawn) [Example 2-79]
*A* ≤ 5.00

*Q* Item: O=C(O)[C@]1(NS(=O)(=O)c2ccc(-c3ccc(Cl)cc3)s2)C[C@@H]1c1cccc([N+](=O)[O-])c1 [Example 2-170]
*A* > 7.00

*Q* Item: O=C(O)C1(NS(=O)(=O)c2ccc(-c3ccc(Cl)cc3)cc2)CC1c1cccc(Oc2ccc(Cl)cc2)c1 (stereo not drawn) [Example 1-11]
*A* > 6.00

*Q* Item: O=C(NCCC(F)(F)F)c1ccc(S(=O)(=O)NC2(C(=O)O)CC2c2ccccc2)s1 (stereo not drawn) [Example 2-97]
*A* ≤ 5.00

*Q* Item: O=C(O)[C@]1(NS(=O)(=O)/C=C/c2cccc(C(F)(F)F)c2)C[C@@H]1c1ccccc1 [Example 2-162]
*A* ≤ 5.00

*Q* Item: CC(C)(C)C#Cc1ccc(S(=O)(=O)N[C@@]2(C(=O)O)C[C@@H]2c2ccccc2)s1 [Example 2-132]
*A* ≤ 5.00

*Q* Item: O=C(Nc1cccc(C2CC2(NS(=O)(=O)c2ccc(-c3cc(C(F)(F)F)on3)s2)C(=O)O)c1)N1CCOCC1 (stereo not drawn) [Example 2-250]
*A* > 7.00

*Q* Item: O=C(O)Cc1cccc(C2CC2(NS(=O)(=O)c2ccc(-c3cc(C(F)(F)F)on3)s2)C(=O)O)c1 (stereo not drawn) [Example 2-212]
*A* > 6.00

*Q* Item: O=C(O)[C@]1(NS(=O)(=O)c2ccc(-c3cc(C(F)F)on3)s2)C[C@@H]1c1ccccc1 [Example 2-99]
*A* > 6.00

*Q* Item: O=C(O)[C@@]1(NS(=O)(=O)c2ccc(-c3ccc(Cl)cc3)s2)C[C@H]1c1cccc(Br)c1 [Example 2-150]
*A* > 6.00

*Q* Item: O=C(O)[C@]1(NS(=O)(=O)c2ccc(C3=NOC(O)(C(F)(F)F)C3)s2)C[C@@H]1c1ccccc1 (stereo partly drawn) [Example 2-35]
*A* > 6.00

###

Target: MMP-1 (Homo sapiens, UniProt P03956)
Sequence (P03956 100-469, species assumed): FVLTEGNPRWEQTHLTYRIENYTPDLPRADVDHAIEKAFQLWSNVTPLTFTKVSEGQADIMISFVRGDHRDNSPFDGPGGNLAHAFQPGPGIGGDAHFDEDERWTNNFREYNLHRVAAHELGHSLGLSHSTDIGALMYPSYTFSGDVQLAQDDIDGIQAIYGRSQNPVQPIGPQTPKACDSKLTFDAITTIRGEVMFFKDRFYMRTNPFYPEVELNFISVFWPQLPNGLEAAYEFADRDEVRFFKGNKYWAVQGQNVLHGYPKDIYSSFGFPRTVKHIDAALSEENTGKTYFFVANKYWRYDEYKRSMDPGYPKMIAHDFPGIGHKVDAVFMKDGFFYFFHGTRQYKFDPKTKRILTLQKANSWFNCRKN
Experiment: MMP-1 inhibitory action (Type I collagen Activity Measurement kit, FITC-labeled collagen type I)
Type: biochemical
Conditions: Experimental Example 2; read-out: IC50 MMP1
readout: IC50

*Q* Query (compound): CC1[C@H](c2ccccc2)[C@]1(NS(=O)(=O)N1CCN(c2ccc(Cl)cn2)CC1)C(=O)O (some centres unmarked) ; field requested: IC50
*A* ≥ 1 µM

*Q* Item: CC1CCC(c2ccc(S(=O)(=O)N[C@@]3(C(=O)O)C[C@]3(C)c3ccccc3)cc2)CC1 (some centres unmarked)
*A* ≥ 10 µM

*Q* Item: CC1[C@H](c2ccccc2)[C@]1(NS(=O)(=O)N1CCN(C(=O)NCc2ccccc2)CC1)C(=O)O (some centres unmarked)
*A* ≥ 1 µM

*Q* Item: "C[C@]1(c2ccccc2)C[C@@]1(NS(=O)(=O)c1ccc(-n2cc(Cl)cn2)s1)C(=O)O"
*A* ≥ 1 µM

*Q* Item: "CN(C)C(=O)Cc1ccc([C@@H]2C[C@]2(NS(=O)(=O)c2ccc(-c3cc(C(F)(F)F)on3)s2)C(=O)O)cc1"
*A* < 1 µM

*Q* Item: O=C(CSCC1(c2ccccc2)CC1(NS(=O)(=O)c1ccc(-c2ccc(Cl)cc2)s1)C(=O)O)N1CCOCC1 (centres unmarked)
*A* ≥ 1 µM

*Q* Item: CC1[C@H](c2ccccc2)[C@]1(NS(=O)(=O)N1CCC(OCc2cc(Cl)ccc2Cl)C1)C(=O)O (some centres unmarked)
*A* ≥ 1 µM

*Q* Item: CC(C)OCCNC(=O)OCC1(c2ccccc2)CC1(NS(=O)(=O)c1ccc(-c2cc(C(F)(F)F)on2)s1)C(=O)O (centres unmarked)
*A* ≥ 1 µM

*Q* Item: CC1[C@H](c2ccccc2)[C@]1(NS(=O)(=O)c1ccc(-n2cc(S(C)(=O)=O)cn2)s1)C(=O)O (some centres unmarked)
*A* < 0.1 µM

*Q* Item: CC1[C@H](c2ccccc2)[C@]1(NS(=O)(=O)c1ccc2c(c1)Cc1cc(Cl)ccc1-2)C(=O)O (some centres unmarked)
*A* < 1 µM

*Q* Item: NCCCC1(c2ccccc2)CC1(NS(=O)(=O)c1ccc(-c2ccc(Cl)cc2)s1)C(=O)O (centres unmarked)
*A* ≥ 1 µM

*Q* Item: CC1[C@H](c2ccccc2)[C@]1(NS(=O)(=O)c1ccc(-c2cc(C(F)(F)F)no2)s1)C(=O)O (some centres unmarked)
*A* ≥ 1 µM

*Q* Item: O=C(NO)C1(NS(=O)(=O)c2ccc(-c3ccc(Cl)cc3)s2)C2CCc3ccccc3C21 (centres unmarked)
*A* < 1 µM

*Q* Item: CC1[C@H](c2ccccc2)[C@]1(NS(=O)(=O)c1ccc2c(c1)Cc1cc(Br)ccc1-2)C(=O)O (some centres unmarked)
*A* ≥ 1 µM

*Q* Item: CC1[C@H](c2ccccc2)[C@]1(NS(=O)(=O)c1ccc(-n2cc(Cl)cn2)s1)C(=O)O (some centres unmarked)
*A* < 1 µM

*Q* Item: "C[C@]1(c2ccc(F)cc2)C[C@@]1(NS(=O)(=O)c1ccc(-c2cc(C(F)(F)F)on2)s1)C(=O)O"
*A* < 1 µM

*Q* Item: O=C(NO)C1(NS(=O)(=O)c2ccc(-c3cc(C(F)(F)F)on3)s2)C2CCc3ccccc3C21 (centres unmarked)
*A* < 1 µM

*Q* Item: COc1ccccc1C1(C)CC1(NS(=O)(=O)c1ccc(-c2cc(C(F)(F)F)on2)s1)C(=O)O (centres unmarked)
*A* < 1 µM

*Q* Item: CC1[C@H](c2ccccc2)[C@]1(NS(=O)(=O)c1ccc(-c2cn3ccccc3n2)s1)C(=O)O (some centres unmarked)
*A* ≥ 1 µM

*Q* Item: C=C(Cl)c1cnn(-c2ccc(S(=O)(=O)N[C@@]3(C(=O)O)C(C)[C@@H]3c3ccccc3)s2)c1 (some centres unmarked)
*A* < 0.1 µM

*Q* Item: "C[C@]1(c2ccccc2)C[C@@]1(NS(=O)(=O)c1ccc(-c2ccc(CO)c(F)c2)s1)C(=O)O"
*A* ≥ 1 µM

*Q* Item: O=C(O)C1(NS(=O)(=O)c2ccc(-c3ccc(Cl)cc3)s2)CC1(CCCn1cccn1)c1ccccc1 (centres unmarked)
*A* < 1 µM

*Q* Item: O=C1OCC2C(c3ccccc3)C12NS(=O)(=O)c1ccc(-c2cc(C(F)(F)F)on2)s1 (centres unmarked)
*A* ≥ 10 µM
